# assayed-target: UBR4^UBR (UBR box of Human UBR4) (Homo sapiens, UniProt Q5T4S7)
# Sequence (Q5T4S7 1660-1729): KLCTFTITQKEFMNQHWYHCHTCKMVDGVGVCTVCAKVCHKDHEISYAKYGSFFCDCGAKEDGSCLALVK
Where a SMILES comes first, the peptide text is derived from it.
property-measured: Kd
Write down the value, and be sure its unit follows.

Inquiry: Would you mind telling me what Kd value was observed for CC[C@H](C)[C@H](NC(=O)[C@@H](N)CCCNC(=N)N)C(=O)N[C@@H](Cc1ccccc1)C(=O)N[C@@H](CO)C(=O)O [RIFS] (H-RIFS-OH) ?
Reply text: 626 µM
